Hey, just so you know, these numbers are from patent US20210101964A1.

ASSAYED SYSTEM: rat-mouse chimeric recombinant antibody 5811 mFab
Sequence (VH, as listed by the source, chain 1 of 2): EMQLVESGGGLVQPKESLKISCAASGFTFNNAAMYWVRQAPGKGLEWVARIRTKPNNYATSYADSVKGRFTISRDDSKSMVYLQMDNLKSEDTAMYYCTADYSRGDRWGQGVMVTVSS
Sequence (VL, as listed by the source, chain 2 of 2): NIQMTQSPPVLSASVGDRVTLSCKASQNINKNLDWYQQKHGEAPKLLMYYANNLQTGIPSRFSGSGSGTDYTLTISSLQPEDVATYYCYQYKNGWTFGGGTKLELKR
MEASUREMENT PROTOCOL: competitive SPR (Biacore 3000): 50 nM 5811 mFab pre-incubated with 1 µM peptide, injected over immobilised human alpha synuclein monomer and fibrils
METRIC: binding result

BINDER	MEASURED
Ac-DPDNEAYEMP-NH2 [peptide AS119-128]	binds
Ac-DMPVDPDNEA-NH2 [peptide AS115-124]	binds
Ac-LEDMPVDPDN-NH2 [peptide AS113-122]	binds
